meta.source: patent US20250066503A1

TARGET: T1, human GPC3 (human, UniProt P51654 25-563)
T1 construct: range 25-563; soluble analyte; also called soluble human GPC3; glypican 3
T1 sequence (P51654 25-563 limits assumed): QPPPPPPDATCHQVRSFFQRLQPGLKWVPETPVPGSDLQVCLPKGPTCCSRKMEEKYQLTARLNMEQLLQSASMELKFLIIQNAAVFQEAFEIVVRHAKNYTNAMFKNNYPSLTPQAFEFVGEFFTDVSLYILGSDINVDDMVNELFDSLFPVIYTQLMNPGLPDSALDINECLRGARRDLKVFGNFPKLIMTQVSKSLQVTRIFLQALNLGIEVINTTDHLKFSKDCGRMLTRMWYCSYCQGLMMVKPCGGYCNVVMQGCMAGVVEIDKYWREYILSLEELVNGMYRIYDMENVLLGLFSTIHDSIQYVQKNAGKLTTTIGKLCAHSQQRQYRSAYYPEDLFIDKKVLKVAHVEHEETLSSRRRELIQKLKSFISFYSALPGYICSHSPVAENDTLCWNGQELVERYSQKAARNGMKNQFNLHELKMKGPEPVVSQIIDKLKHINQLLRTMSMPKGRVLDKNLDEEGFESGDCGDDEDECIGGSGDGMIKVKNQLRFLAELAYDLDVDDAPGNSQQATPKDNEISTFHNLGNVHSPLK
MEASUREMENT DESCRIPTION: SPR
Cut-off 0.7 nM on Kd: below means Y, at or above means N.

>  <BINDER>
H0610-G1dh/none-Hi-Kn010G3/L0163-k0 (antibody, V domains shown, one-arm) VH: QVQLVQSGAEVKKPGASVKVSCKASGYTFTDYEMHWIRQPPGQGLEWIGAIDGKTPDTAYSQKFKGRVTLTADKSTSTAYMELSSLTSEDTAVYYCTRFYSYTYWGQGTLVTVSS VL: DIVMTQSPLSLPVTPGEPASISCRSSQSLVHSNRNTYLHWYQQKPGQAPRLLIYKVSNRFSGVPDRFSGSGSGTDFTLKISRVEAEDVGVYYCYQGTQVPYTFGQGTKLEIK

>  <CAT>
N

$$$$
>  <BINDER>
H0610-G1dh/none-Hi-Kn010G3/L0242-k0 (antibody, V domains shown, one-arm) VH: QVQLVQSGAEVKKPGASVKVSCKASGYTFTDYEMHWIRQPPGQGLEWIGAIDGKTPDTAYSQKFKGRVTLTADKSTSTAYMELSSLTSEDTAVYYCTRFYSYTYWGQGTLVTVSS VL: DIVMTQSPLSLPVTPGEPASISCRSSESPVHSNRNTYIHWYQQKPGQAPRLLIYKVSNRFSGVPDRFSGSGSGTDFTLKISRVEAEDVGVYYCYQGTQVPYTFGQGTKLEIK

>  <CAT>
N

$$$$
>  <BINDER>
H0610-G1dh/none-Hi-Kn010G3/L0093-k0 (antibody, V domains shown, one-arm) VH: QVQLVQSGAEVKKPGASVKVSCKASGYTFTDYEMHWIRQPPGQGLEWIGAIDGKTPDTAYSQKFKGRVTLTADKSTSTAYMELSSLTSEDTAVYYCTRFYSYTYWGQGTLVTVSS VL: DIVMTQSPLSLPVTPGEPASISCRSSQSLVHSNRNTYLQWYQQKPGQAPRLLIYKVSNRFSGVPDRFSGSGSGTDFTLKISRVEAEDVGVYYCGQGTQVPYTFGQGTKLEIK

>  <CAT>
Y

$$$$
>  <BINDER>
GCH060-G1dh/none-Hi-Kn010G3/L0222-k0 (antibody, V domains shown, one-arm) VH: QVQLVQSGAEVKKPGASVTVSCKASGYTFEDYEMHWIRQPPGEGLEWIGAIDGETPDTAYSQKFEGRVTLTADKSTSTAYMELSSLTEEDTAVYYCTRFYSYTYWGQGTLVTVSS VL: DIVMTQSPLSLPVTPGEPASISCRSSQSPVHSNRNTYIQWYQQKPGQAPRLLIYKVSNRFSGVPDRFSGSGSGTDFTLKISRVEAEDVGVYYCYQGTQVPYTFGQGTKLEIKR

>  <CAT>
Y

$$$$
